biological target: FES Catalytic Domain (Homo sapiens, UniProt P07332); construct: For all of them, we expressed and purified the catalytic domain separately; His-tag; made in house; host or cells: Escherichia coli; test: Differential Scanning Fluorimetry (DSF) Tm shift; assay type: binding; conditions: 2 µM protein, 10 µM inhibitor, average of 3 experiments, each in duplicate
Sequence (P07332 561-822 limits assumed): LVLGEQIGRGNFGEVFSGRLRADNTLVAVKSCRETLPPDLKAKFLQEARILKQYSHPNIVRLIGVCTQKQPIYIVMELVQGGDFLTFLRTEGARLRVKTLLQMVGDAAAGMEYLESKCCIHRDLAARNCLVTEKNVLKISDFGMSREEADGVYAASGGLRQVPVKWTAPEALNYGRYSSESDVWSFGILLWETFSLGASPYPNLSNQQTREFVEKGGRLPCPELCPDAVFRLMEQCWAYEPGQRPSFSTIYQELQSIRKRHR
Exercise: for every item that follows, state its recorded Melting temperature (Tm) shift.
Entry rule: numbers only, all in degrees Celcius.

Incoming: Please give the measured Melting temperature (Tm) shift for this molecule: O=C1NC(=O)/C(=C/c2ccc3nccnc3c2)S1
Outgoing: 0.1

Incoming: Repeat with O=C(c1cc2cc(O)ccc2[nH]1)c1cc2cc(O)ccc2[nH]1
Outgoing: 1.0

Incoming: Another: O=C1c2ccccc2-[n+]2ccc3c([nH]c4ccccc43)c21 [Fascaplysin, Synthetic, Fascaplysin]
Outgoing: 0.2

Incoming: What about Cc1nc(N)sc1-c1ccnc(Nc2cccc([N+](=O)[O-])c2)n1 ?
Outgoing: 0.3

Incoming: One more molecule: CCn1cnc2c(Nc3cccc(Cl)c3)nc(N[C@H]3CCCC[C@H]3N)nc21 [Cdk1 Inhibitor, CGP74514A]
Outgoing: 1.6

Incoming: Next entry: CC(=O)O/N=C1/C(=C2/C(=O)Nc3cc(Br)ccc32)Nc2ccccc21
Outgoing: 0.4

Incoming: Likewise for Cc1cc(Nc2nc(-c3ccccc3)nc3ccccc23)n[nH]1 ?
Outgoing: 1.0

Incoming: Then what about the molecule O=c1c2ccccc2[nH]c(=S)n1CCN1CCC(=C(c2ccc(F)cc2)c2ccc(F)cc2)CC1 ?
Outgoing: 0.7

###

Would you kindly list Melting temperature (Tm) shift for each of these molecules?
molecular target: DMPK Catalytic Domain (Homo sapiens, UniProt Q09013); construct: For all of them, we expressed and purified the catalytic domain separately; His-tag; made in house; host or cells: Escherichia coli; test: Differential Scanning Fluorimetry (DSF) Tm shift; format: binding; conditions: 2 µM protein, 10 µM inhibitor, average of 3 experiments, each in duplicate
Sequence (Q09013 71-339 limits assumed): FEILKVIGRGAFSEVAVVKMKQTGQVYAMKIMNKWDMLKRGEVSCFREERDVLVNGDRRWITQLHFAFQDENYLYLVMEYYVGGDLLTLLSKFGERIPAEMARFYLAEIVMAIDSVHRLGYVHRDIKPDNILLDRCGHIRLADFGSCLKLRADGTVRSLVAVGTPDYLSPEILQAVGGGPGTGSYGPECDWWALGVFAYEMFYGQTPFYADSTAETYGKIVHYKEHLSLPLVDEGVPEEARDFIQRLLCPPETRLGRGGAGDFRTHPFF
Mention the unit after the number when you answer.

Incoming: Consider the molecule CC[C@@H](CO)Nc1nc(NCc2ccccc2)c2ncn(C(C)C)c2n1 (single isomer, unassigned) [Roscovitine, (S)-Isomer] and give its measured Melting temperature (Tm) shift.
Outgoing: 0.3 degrees Celcius

Incoming: Thanks! And CN(C)CCCn1cc(C2=C(c3c[nH]c4ccccc34)C(=O)NC2=O)c2ccccc21 [Bisindolylmaleimide I] ?
Outgoing: 3.9 degrees Celcius

Incoming: Another molecule to check: Cl.Cl.O=S(=O)(NCCNC/C=C/c1ccc(Br)cc1)c1cccc2cnccc12 [H-89, Dihydrochloride]
Outgoing: 0.0 degrees Celcius

Incoming: Input CCN(CC)C(=O)c1ccc(Nc2nc(OCC3CCCCC3)c3[nH]cnc3n2)cc1
Outgoing: 2.0 degrees Celcius

Incoming: And what about the molecule COc1cc(Nc2ncc3ccn(-c4cccc(CCC#N)c4)c3n2)cc(OC)c1OC ?
Outgoing: 3.2 degrees Celcius

Incoming: Same question, CCCCn1c2ccc(O)cc2c2c3c(c(-c4ccccc4Cl)cc21)C(=O)NC3=O this time
Outgoing: 0.6 degrees Celcius

Incoming: // same read-out, input: NC(=O)Nc1sc(-c2ccc(F)cc2)cc1C(N)=O
Outgoing: 1.8 degrees Celcius

Incoming: And what about the molecule O=C1NC(=O)c2c1c1c3ccccc3[nH]c1n1cncc21 [Isogranulatimide] ?
Outgoing: 0.5 degrees Celcius

Incoming: Repeat for the following molecule: CCN(CC)CCNC(=O)c1c(C)[nH]c(/C=C2\C(=O)Nc3ccc(Cl)cc32)c1C
Outgoing: 1.9 degrees Celcius

Incoming: What would you report for O.O=C1NCCc2[nH]c(-c3ccnc(-c4cnc5ccccc5c4)c3)cc21 ?
Outgoing: 0.3 degrees Celcius

Incoming: Entry O=C1c2ccccc2-c2n[nH]c3cccc1c23 please
Outgoing: 1.4 degrees Celcius

Incoming: Follow-up item: NC(=O)Nc1sc(-c2ccccc2)cc1C(N)=O
Outgoing: 1.4 degrees Celcius

Incoming: And for COc1cc2ncnc(Nc3ccc(Cl)cc3Cl)c2cc1OC ?
Outgoing: 0.4 degrees Celcius

Incoming: Another molecule to look at: CCN1/C(=C/C(C)=O)Sc2ccc(OC)cc21
Outgoing: 0.2 degrees Celcius

Incoming: Please do the same for O=C(c1ccc(Nc2nccc(-c3cc4ccccc4s3)n2)cc1)N1CCC(N2CCCC2)CC1 as well.
Outgoing: 1.2 degrees Celcius

Incoming: Please answer likewise for Nc1cccc(-c2cc3c(Oc4cccc(O)c4)ncnc3[nH]2)c1
Outgoing: 1.2 degrees Celcius

###

Hi there, I'd appreciate the recorded Melting temperature (Tm) shift for every entry that follows.
biological target: PAK4 Catalytic Domain+PBD (Homo sapiens, UniProt O96013); construct: for 8, we also made a longer version containing one or more additional domains; His-tag; made in house; host or cells: Escherichia coli; experiment: Differential Scanning Fluorimetry (DSF) Tm shift; format: binding; details: 2 µM protein, 10 µM inhibitor, average of 3 experiments, each in duplicate
Sequence (O96013 whole entry, the tested form may be a part): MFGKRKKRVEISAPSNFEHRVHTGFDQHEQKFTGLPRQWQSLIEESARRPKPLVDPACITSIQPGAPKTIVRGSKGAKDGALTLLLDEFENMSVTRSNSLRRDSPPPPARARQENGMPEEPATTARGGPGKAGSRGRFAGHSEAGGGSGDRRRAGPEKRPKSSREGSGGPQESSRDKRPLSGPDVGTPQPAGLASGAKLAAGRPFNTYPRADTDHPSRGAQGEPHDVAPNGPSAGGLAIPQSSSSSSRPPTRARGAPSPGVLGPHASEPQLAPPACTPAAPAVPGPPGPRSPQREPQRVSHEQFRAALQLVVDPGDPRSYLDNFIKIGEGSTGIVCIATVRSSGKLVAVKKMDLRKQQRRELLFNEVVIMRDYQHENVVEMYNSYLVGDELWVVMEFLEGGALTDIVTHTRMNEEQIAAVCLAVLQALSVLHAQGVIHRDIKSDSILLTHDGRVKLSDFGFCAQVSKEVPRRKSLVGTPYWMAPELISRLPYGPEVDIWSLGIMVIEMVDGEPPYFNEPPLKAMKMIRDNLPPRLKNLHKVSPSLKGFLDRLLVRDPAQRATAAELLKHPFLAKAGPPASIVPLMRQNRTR
All answers are understood in degrees Celcius, so give the number only.

Incoming: Endpoint output: Melting temperature (Tm) shift of O=C1NC(=O)C(=Cc2cccc(C(F)(F)F)c2)S1 . Value?
Outgoing: 0.4

Incoming: Queued: c1cc(-c2cnn3cc(-c4ccc(OCCN5CCCCC5)cc4)cnc23)ccn1
Outgoing: 0.8

Incoming: And for CC(=O)O/N=C1/C(=C2/C(=O)Nc3cc(Br)ccc32)Nc2ccccc21 ?
Outgoing: 1.0

Incoming: Another molecule to check: Cl.Cl.O=S(=O)(NCCNC/C=C/c1ccc(Br)cc1)c1cccc2cnccc12 [H-89, Dihydrochloride]
Outgoing: 0.0

Incoming: Quick one: Cc1ccc([N+](=O)[O-])cc1S(=O)(=O)N(C)N=Cc1cnc2ccc(Br)cn12.Cl.O.O
Outgoing: 2.1

Incoming: // repeat for COc1cc(Nc2ncc3ccn(-c4cccc(CCC#N)c4)c3n2)cc(OC)c1OC and report
Outgoing: 7.3

Incoming: Now try O=C1Nc2ccc(I)cc2/C1=C1/Nc2ccccc2/C1=N\O .
Outgoing: 2.3

Incoming: Param item: CC[C@@H](CO)Nc1nc(NCc2ccccc2)c2ncn(C(C)C)c2n1 (single isomer, unassigned) [Roscovitine, (S)-Isomer]
Outgoing: 2.6

Incoming: Next: O=C1NC(=O)c2c1c1c3ccccc3[nH]c1c1[nH]c3ccccc3c21 [Arcyriaflavin A, Synthetic, Arcyriaflavin A]
Outgoing: 0.5

Incoming: What about this molecule? COc1ccc2c(c1)c1c3c(c4c5ccccc5n(C)c4c1n2CC(O)CN(C)C)C(=O)NC3=O.Cl (centres unmarked) [Gö 7874, Hydrochloride]
Outgoing: 0.1

Incoming: Queued: O=C(Nc1cccc(Nc2nccc(Nc3cccc(C(F)(F)F)c3)n2)c1)C1CC1
Outgoing: 1.1

Incoming: Request: O=C1NC(=O)C(c2c[nH]c3ccccc23)=C1c1c[nH]c2ccccc12 [Bisindolylmaleimide IV]
Outgoing: 0.0

Incoming: Repeat for the following molecule: CN1C(=O)C(=C2Nc3ccccc3C2=NO)c2ccc(Br)cc21 [GSK-3 Inhibitor IX, Control, MeBIO]
Outgoing: 0.3

Incoming: Now the same for NC(=O)Nc1sc(-c2ccccc2)cc1C(N)=O
Outgoing: 2.5

###

I'd be grateful if you could share measured Melting temperature (Tm) shift for these entries.
target: FES Catalytic Domain (Homo sapiens, UniProt P07332); construct: For all of them, we expressed and purified the catalytic domain separately; His-tag; made in house; host or cells: Escherichia coli; assay: Differential Scanning Fluorimetry (DSF) Tm shift; assay type: binding; details: 2 µM protein, 10 µM inhibitor, average of 3 experiments, each in duplicate
Report the figure in degrees Celcius without appending any unit label.

Incoming: Look up Melting temperature (Tm) shift: O=C1NC(=O)C(c2c[nH]c3ccccc23)=C1c1c[nH]c2ccccc12 [Bisindolylmaleimide IV]
Outgoing: 0.5

Incoming: O=C1NC(=O)C(=Cc2cccc(C(F)(F)F)c2)S1 , same question.
Outgoing: 0.5

Incoming: Please give the result for CC(C)[C@H](CO)Nc1nc(Nc2cccc(Cl)c2)c2ncn(C(C)C)c2n1 too.
Outgoing: 0.5

###

Exercise: state measured Melting temperature (Tm) shift for each of the compounds provided.
target: PAK4 Catalytic Domain (Homo sapiens); construct: For all of them, we expressed and purified the catalytic domain separately; His-tag; made in house; host or cells: Escherichia coli; assay: Differential Scanning Fluorimetry (DSF) Tm shift; assay type: binding; conditions: 2 µM protein, 10 µM inhibitor, average of 3 experiments, each in duplicate
Sequence (O96013 321-572 limits assumed): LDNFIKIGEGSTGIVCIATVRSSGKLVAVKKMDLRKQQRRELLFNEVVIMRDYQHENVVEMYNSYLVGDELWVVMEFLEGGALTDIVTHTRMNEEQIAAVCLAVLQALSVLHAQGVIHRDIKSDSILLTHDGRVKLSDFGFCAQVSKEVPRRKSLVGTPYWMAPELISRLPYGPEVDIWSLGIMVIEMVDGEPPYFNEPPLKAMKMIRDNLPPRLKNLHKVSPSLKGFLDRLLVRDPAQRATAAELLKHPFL
Report only the number, with the unit degrees Celcius understood.

Incoming: Name the reported Melting temperature (Tm) shift value associated with the compound CCCCc1c(-c2ccc(O)cc2)[nH]c2nccnc12
Outgoing: 1.3

Incoming: Try this compound too: Cn1cc(/C=C2\C(=O)Nc3ccc(S(N)(=O)=O)cc32)c2ccccc21
Outgoing: 1.7

Incoming: Now the same for O=C1NC(=O)/C(=C/c2ccc3nccnc3c2)S1
Outgoing: 0.1

Incoming: And then CC(=O)O/N=C1/C(=C2/C(=O)Nc3cc(Br)ccc32)Nc2ccccc21 , what is it?
Outgoing: 0.6

Incoming: Repeat with CC(C)n1cnc2c(NCc3ccccc3O)nc(NCCCO)nc21
Outgoing: 1.4

Incoming: Please do the same for Brc1c(Br)c(Br)c2n[nH]nc2c1Br as well.
Outgoing: 0.2

Incoming: Next: Nc1ncnc2c1c(I)cn2[C@@H]1O[C@H](CO)[C@@H](O)[C@H]1O
Outgoing: 0.7

Incoming: Next record, please: COc1ccc2c(c1)c(C1=C(c3c[nH]c4ccccc34)C(=O)NC1=O)cn2CCCN(C)C
Outgoing: 0.0

Incoming: Now give it for Nc1cccc(-c2cc3c(Oc4cccc(O)c4)ncnc3[nH]2)c1 too.
Outgoing: 1.3

Incoming: Record: CS(=O)(=O)O.Cn1cc(C2=C(c3cn(CCCSC(=N)N)c4ccccc34)C(=O)NC2=O)c2ccccc21
Outgoing: 1.5

Incoming: Continue with CC(C)n1cnc2c(Nc3cccc(Cl)c3)nc(NCCO)nc21
Outgoing: 2.0

Incoming: // next record CN[C@@H]1C[C@H]2O[C@@](C)([C@@H]1OC)n1c3ccccc3c3c4c(c5c6ccccc6n2c5c31)C(=O)N[C@@H]4O
Outgoing: 6.2

Incoming: Request: Cc1[nH]c(/C=C2\C(=O)Nc3ccc(S(=O)(=O)N(C)c4cccc(Cl)c4)cc32)c(C)c1C(=O)N1CCN(C)CC1
Outgoing: 0.9

Incoming: Another compound: O=C1NC(=O)c2c1c1c3ccccc3[nH]c1n1cncc21 [Isogranulatimide]
Outgoing: 0.4

Incoming: And then O=C1NC(=O)c2c1c1c3ccccc3n3c1c1c2c2ccccc2n1C1CCC3O1 , what is it?
Outgoing: 2.5

Incoming: Try the compound O=C1c2ccccc2-c2n[nH]c3cccc1c23
Outgoing: 1.1

Incoming: Now try O.O=C1NCCc2[nH]c(-c3ccnc(-c4cnc5ccccc5c4)c3)cc21 .
Outgoing: 0.0

Incoming: And for CC(C)(C)c1nc2c3cc[nH]c(=O)c3c3cc(F)ccc3c2[nH]1 ?
Outgoing: 0.2

Incoming: Queued: CC(C)[C@H](CO)Nc1nc(Nc2cccc(Cl)c2)c2ncn(C(C)C)c2n1
Outgoing: 3.2

Incoming: Now the compound c1cc(-c2cnn3cc(-c4ccc(OCCN5CCCCC5)cc4)cnc23)ccn1
Outgoing: 0.7

Incoming: Note, next up: COc1cc2ncnc(Nc3ccc(OCc4ccccc4)cc3)c2cc1OC
Outgoing: 0.3

Incoming: Also Cl.Cl.NCCNc1ncc(C(N)=O)c(Nc2cccc(C(F)(F)F)c2)n1 ?
Outgoing: 4.7
